Provide the reported Kd of each item.
Biological target: T1, EsCas13d, nuclease-dead (Eubacterium siraeum, UniProt B0MS50, R295A;H300A;R849A;H854A)
T1 sequence: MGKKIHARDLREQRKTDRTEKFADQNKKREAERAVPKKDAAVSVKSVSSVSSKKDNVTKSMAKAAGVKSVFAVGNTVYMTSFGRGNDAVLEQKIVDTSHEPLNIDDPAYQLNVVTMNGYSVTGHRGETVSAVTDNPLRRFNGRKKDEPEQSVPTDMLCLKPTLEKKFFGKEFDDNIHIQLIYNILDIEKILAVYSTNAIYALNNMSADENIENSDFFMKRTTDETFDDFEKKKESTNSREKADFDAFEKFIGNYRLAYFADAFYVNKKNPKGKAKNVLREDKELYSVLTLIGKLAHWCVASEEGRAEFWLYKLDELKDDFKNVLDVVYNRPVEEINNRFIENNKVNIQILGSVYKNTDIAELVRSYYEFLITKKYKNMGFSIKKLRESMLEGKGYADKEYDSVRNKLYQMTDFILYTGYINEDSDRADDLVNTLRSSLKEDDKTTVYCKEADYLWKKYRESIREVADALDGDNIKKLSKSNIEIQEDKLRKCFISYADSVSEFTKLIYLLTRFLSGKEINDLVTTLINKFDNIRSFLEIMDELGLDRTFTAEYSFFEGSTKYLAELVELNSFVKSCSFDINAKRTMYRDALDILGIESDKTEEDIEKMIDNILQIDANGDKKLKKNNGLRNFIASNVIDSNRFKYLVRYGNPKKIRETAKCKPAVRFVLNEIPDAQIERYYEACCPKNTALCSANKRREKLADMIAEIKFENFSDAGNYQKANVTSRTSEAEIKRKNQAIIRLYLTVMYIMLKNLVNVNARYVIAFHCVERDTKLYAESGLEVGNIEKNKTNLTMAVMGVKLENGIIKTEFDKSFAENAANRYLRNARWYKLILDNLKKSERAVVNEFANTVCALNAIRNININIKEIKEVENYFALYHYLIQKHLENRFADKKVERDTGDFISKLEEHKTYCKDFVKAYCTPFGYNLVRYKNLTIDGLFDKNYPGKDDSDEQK
Test: crRNA (strand 1, pre-loaded); Mg2+; 40 mM Tris-HCl pH 7.5, 150 mM NaCl, 6 mM MgCl2, 1 mM DTT, 0.1% Tween-20, 0.2 mg/ml BSA; 25 C; 10 min per concentration, then washed
Settings: tags: His6-TwinStrep-SUMO cleaved; N-terminal SNAP kept (SNAP-Surface 488); label: 3' end held by stalled T7 RNA polymerase

Worked set:
BINDER	Kd
target 1 insU 3' of 9,insA 3' of 5 (mixed) RNA 1: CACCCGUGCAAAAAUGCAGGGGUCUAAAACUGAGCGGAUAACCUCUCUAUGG RNA 2: GGGAAUGGAUCCACAUCUACGAAUUCGUACCAUAGAGAGGUUAUUCCGACUCACCGAGAUCGGAAGAGCACACGU	6.6 nM
target 1 insC 3' of 9,insU 3' of 1 (mixed) RNA 1: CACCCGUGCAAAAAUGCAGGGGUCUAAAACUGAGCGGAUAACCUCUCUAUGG RNA 2: GGGAAUGGAUCCACAUCUACGAAUUCGUACCAUAGAGAGGUUACUCCGCUCAUCCGAGAUCGGAAGAGCACACGU	14.6 nM
target 2 MT 5'PFS UUU 3'PFS CGA (mixed) RNA 1: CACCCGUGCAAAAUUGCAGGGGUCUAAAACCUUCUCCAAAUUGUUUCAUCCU RNA 2: GGGAAUGGAUCCACAUCUACGAAUUCUUUAGGAUGAAACAAUUUGGAGAAGCGAAGAUCGGAAGAGCACACGU	8 nM
target 3 C6G,U7G (mixed) RNA 1: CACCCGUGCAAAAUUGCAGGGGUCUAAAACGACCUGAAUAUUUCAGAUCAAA RNA 2: GGGAAUGGAUCCACAUCUACGAAUUCGUUUUUGAUCUGAAAUAUGGAGGUCUGCAGAUCGGAAGAGCACACGU	46.5 nM
target 2 MT 5'PFS CUC 3'PFS AUC (mixed) RNA 1: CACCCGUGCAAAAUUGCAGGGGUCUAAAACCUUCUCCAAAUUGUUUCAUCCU RNA 2: GGGAAUGGAUCCACAUCUACGAAUUCCUCAGGAUGAAACAAUUUGGAGAAGAUCAGAUCGGAAGAGCACACGU	1.91 nM

Please report Kd for every entry that follows.
1. target 1 MT 5'PFS GGG 3'PFS UAA (mixed) RNA 1: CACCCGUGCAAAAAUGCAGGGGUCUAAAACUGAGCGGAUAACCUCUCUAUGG RNA 2: GGGAAUGGAUCCACAUCUACGAAUUCGGGCCAUAGAGAGGUUAUCCGCUCAUAAAGAUCGGAAGAGCACACGU
2. target 2 MT 5'PFS CAU 3'PFS UAU (mixed) RNA 1: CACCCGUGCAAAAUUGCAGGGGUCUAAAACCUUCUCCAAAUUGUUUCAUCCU RNA 2: GGGAAUGGAUCCACAUCUACGAAUUCCAUAGGAUGAAACAAUUUGGAGAAGUAUAGAUCGGAAGAGCACACGU
3. target 1 insC 3' of 20,insU 3' of 1 (mixed) RNA 1: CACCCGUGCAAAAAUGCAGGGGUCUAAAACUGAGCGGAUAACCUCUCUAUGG RNA 2: GGGAAUGGAUCCACAUCUACGAAUUCGUACCACUAGAGAGGUUAUCCGCUCAUCCGAGAUCGGAAGAGCACACGU

Result:
1: 17.4 nM; 2: 4 nM; 3: 7.34 nM
